# testMethodNotes: Concentration required for the 50% inhibition of enoyl-ACP reductase from Haemophilus influenzae was determined.
readoutLabel: IC50 (µM)

Known IC50 results, listed for orientation:
Specify IC50 for CC(=O)N(C)Cc1cc(C(=O)N(C)Cc2cc3ccccc3n2C)ccc1N and stop.
4.7

Indicate the recorded IC50 value for this compound: CN(Cc1cc2ccccc2n1C)C(=O)/C=C/c1cnc(N)nc1
4.3

Tell us which IC50 value is on record for COC(=O)CC1Nc2ccc(C(=O)N(C)Cc3cc4ccccc4n3C)cc2CN(C)C1=O (stereo not drawn)
6.9

P = COC(=O)C[C@H]1Nc2ccc(C(=O)N(C)Cc3cc4ccccc4n3C)cc2CN(C)C1=O
Q = CN(Cc1cc2ccccc2n1C)C(=O)/C=C/c1cccnc1
# argmax over IC50 for candidates P and Q Reply briefly: the label of your chosen item.
Q

I = CN1Cc2cc(C(=O)N(C)Cc3cc4ccccc4n3C)ccc2NCC1=O
II = CC(=O)N(C)Cc1cccc(C(=O)N(C)Cc2cc3ccccc3n2C)c1
Hi, I'm comparing two records. Which one has the lower IC50, I or II ? Lab log: write the label of the selected item as the result.
I
(I: 2.5 µM, II: 121 µM)

a = CN(Cc1cc2ccccc2n1C)C(=O)CCc1ccc(N)nc1
b = CN(Cc1cc2ccccc2n1C)C(=O)c1ccc(N)cc1
c = CN(Cc1cc2ccccc2n1C)C(=O)c1ccc(N)nc1
Order each entry by recorded IC50, climbing from the minimum. Give your ranking as a list of the labels in the requested order.
b, c, a

###

# measuredTarget: Enoyl-[acyl-carrier-protein] reductase [NADPH] FabI (Staphylococcus aureus, UniProt Q6GI75)
pIC50: −log10 of the molar value.
readoutLabel: pIC50

Kindly indicate its recorded pIC50. Item: CC(=O)N(C)Cc1cccc(C(=O)N(C)Cc2cc3ccccc3n2C)c1
3.97

A = CN(Cc1cc2ccccc2n1C)C(=O)/C=C/c1cnc(N)nc1
B = CN(Cc1cc2ccccc2n1C)C(=O)c1ccc(N)cc1
For this pair, A and B , which shows a numerically higher pIC50? Provide the label of your selected option as the answer.
A
(A: 5.66, B: 4.79)

###

Known IC50 of a selection of compounds
# testMethodNotes: Concentration required for the 50% inhibition of enoyl-ACP reductase from Haemophilus influenzae was determined.

A selection of reference data follows.
Tell me measured IC50 for CN(Cc1cc2ccccc2n1C)C(=O)c1ccccc1 please.
> 100 µM

Recall and state the measured IC50 for CN(Cc1cc2ccccc2n1C)C(=O)c1ccc2c(c1)CN(C)C(=O)[C@H](C(=O)O)N2 .
> 100 µM

Please look at the following compound next.
Identify measured IC50 corresponding to CN(Cc1cc2ccccc2n1C)C(=O)/C=C/c1ccc(N)nc1
4.2 µM

###

// IC50 lookup, one value per entry
# measuredTarget: Enoyl-[acyl-carrier-protein] reductase [NADPH] FabI (Staphylococcus aureus)
# Sequence (Q6GI75 whole entry): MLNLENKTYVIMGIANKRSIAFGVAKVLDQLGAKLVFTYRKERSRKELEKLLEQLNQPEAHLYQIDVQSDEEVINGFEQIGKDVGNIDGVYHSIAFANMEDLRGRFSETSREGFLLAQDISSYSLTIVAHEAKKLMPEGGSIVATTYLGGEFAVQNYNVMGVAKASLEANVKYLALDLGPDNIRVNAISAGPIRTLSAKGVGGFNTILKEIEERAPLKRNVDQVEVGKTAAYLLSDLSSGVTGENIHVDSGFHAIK

Below, 2 molecules whose answers are already recorded.
Return IC50 (reported value) for this molecule: CN(Cc1cc2ccccc2n1C)C(=O)c1ccccc1
> 100 µM

Note down IC50 recorded for CN(Cc1cc2ccccc2n1C)C(=O)c1ccc(N)nc1
> 100 µM

---
Specify measured IC50 for CN1Cc2cc(C(=O)N(C)Cc3cc4ccccc4n3C)ccc2NCC1=O .
21.2 µM
